B1: TPR t1 (parent)
chain: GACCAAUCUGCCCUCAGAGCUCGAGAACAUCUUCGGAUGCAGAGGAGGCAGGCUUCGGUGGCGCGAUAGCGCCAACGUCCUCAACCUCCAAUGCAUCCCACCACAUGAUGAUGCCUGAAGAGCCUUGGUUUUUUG

Variants of: B1
Method notes: polymerase ribozyme fitness, log enrichment relative to wild type (log ratio); higher = more active; in vitro selection for triplet polymerase activity
// bucketize polymerase ribozyme fitness (log ratio): Low (below -4), Mid (-4 to below -0.8), High (-0.8 or more)

Categorize the following entry: GACCAAUGUGCCCUCAGAGCUCGAGAACAUCUUCGGAUGCGGAGGAGGCAGGCUUCGGUGGCGCGAUAGCACCAACGGCCUCAACCUCCAAUGCAUCCCACCACAUGAUGAUGCCUGAAGAUCCUUGGUUUUUUG [C8G A41G G71A U78G G122U]
Mid

Categorize the following entry: GACCAAUCUGCCCUUAGAGCUCGAGAACAUCUUCGGAUGCAGAGGAGCCAGGCUUCGGUGGCGCGAUAGCGGCAACGUCCUCAACCUCCAAUGCAUCCCACCACAUGAUGAAGCCUGAAGAGCCUUGGUUUUUUG [C15U G48C C72G U112A]
High

Categorize the following entry: GACCAAUAUGCCCUCAGAGCUCGAGAACAUCUUCGGAUGGAGAGGAGGCAGGCUUCGGUGGCGCGAUAGCGCCAACGUCCUCAACCUCCAAUGCAUCCCACCACAUGAUGAUGCCUGAAGAGCCUUGGUUUUUUG [C8A C40G]
High

Categorize the following entry: GUCCAAUCUGCCCUCAGAGCUCGAGAACAUCUUCGGAUGCAGAGGAGGCAGGCUUCGGUGGCGCGAUAGCGCCAACGUCCUCAACCUCCAAUGCAUCCCACCACAUGAUGAUGCCUGAACAGCCUUGGUUUUUUG [A2U G120C]
Mid

Categorize the following entry: GACCAAUCUGCCCUCAGAGCUCGAGAACAUCUUCGGAUGCAGAGGAGGCAGGCUUCGGUGGCGCGAUAGCGCCAACCUCCUCAACCUCCAAUGCAUCCCACCACAAGAUGCUGGCUGAAGAGCCUUGGUUCUUUG [G77C U106A A111C C114G U131C]
Low

Categorize the following entry: GACCAAUCUGCCCUCAGAGCUCGAGAACAUCUUCGGAUGCAGAGGAGGCAGGCUUCGGUGGCGCGAUAGCGCCAACGUCCUCAACCUCCAAUGCAUACCACCAAAUGAUGAUGCCUGAAGAGCCUUGGUUUUUUG [C97A C104A]
Low

Categorize the following entry: GACCAAUCUGCCCUCAGAGCUCGAGAACAUCUUCGGAUGCAGAGGAGGCAGGCUUCGGUGGCGCGAUAGCGCCAACGUCCUCAACCUCCACUGCAUCCCACCAUAUGAUGAUGCCUGAAGAGCCUUGGUUUUUUG [A91C C104U]
Mid

Categorize the following entry: GACCGAUGUGCCCUCAGAGCUCGAGAACAUCUUCGGAUGCAGAGGAGGCAGGCUUCGGUGGCGCGAUAGCGCCAACGUCCUCAACCUCCAAUGCAUCCCACCACAUGAUGAUGCCUGAAGAGCCUUGGUUUUUUG [A5G C8G]
Mid

Categorize the following entry: GACCAAUCUGCCCUCAGAGCUCGAGAACAUCUUCGGAUGCAGAGGAGGCAGGCUUCGGUGGCGCGAUAGCGACAACGUCCUCAACCUCCACUGCAUCCCACCACAUGAUGAUGCCUCAAGAGCCUUGGUUUUUUG [C72A A91C G117C]
Low

Categorize the following entry: GACCAAUCUGCCCUCAGAGCUCGAGAACAUCUGCGGAUGCAGAGGAGGCAGGCUUCGGUGGCGCGAUAGGGCCAACGUCCUCAACCUCCAAUGCAUCCCACCACAUGAUGAUUCCUGAAGAGCCUUGGUUUUUUG [U33G C70G G113U]
Low

Categorize the following entry: GACCAGUCUGCCCUCAGAGCUCGAGAACAUCUUCGGAUGCAGAGGAGGCAGGCUUCGGUGGUGCGAUAGCGCUAACGUCCUCAACCUCCAAUGCAUCCCACCACAUGAUGAGGCCUGAAGAGCCUUGGUUUUUUG [A6G C62U C73U U112G]
High

Categorize the following entry: GACCAAUCUGCCCUCAGCGCUCGAGAACGUCUUCGGAUGCAGAGGAGGCAGGCUUCGGUGACGCGAUAGCGCCAACGUCCUCAACCUCCAAUGCAUCCCACCACAUGAUGAUGCCUGAAGAGCCUUGGUUUUUUG [A18C A29G G61A]
Mid

Values were extracted from the RNAGym collection of RNA variant scans (doi:10.1073/pnas.2313332121).
